This section presents compounds with their documented remaining activity at 200 µM values.
biological target: S6K (Homo sapiens); experiment: cell-free kinase activity assay; assay type: biochemical; details: 200 μM compound; DMSO control set 100%; read-out: percent of catalytic activity of the Kinase in the presence of compound as compared to the solvent control (DMSO): S6K
Sequence (P23443 whole entry): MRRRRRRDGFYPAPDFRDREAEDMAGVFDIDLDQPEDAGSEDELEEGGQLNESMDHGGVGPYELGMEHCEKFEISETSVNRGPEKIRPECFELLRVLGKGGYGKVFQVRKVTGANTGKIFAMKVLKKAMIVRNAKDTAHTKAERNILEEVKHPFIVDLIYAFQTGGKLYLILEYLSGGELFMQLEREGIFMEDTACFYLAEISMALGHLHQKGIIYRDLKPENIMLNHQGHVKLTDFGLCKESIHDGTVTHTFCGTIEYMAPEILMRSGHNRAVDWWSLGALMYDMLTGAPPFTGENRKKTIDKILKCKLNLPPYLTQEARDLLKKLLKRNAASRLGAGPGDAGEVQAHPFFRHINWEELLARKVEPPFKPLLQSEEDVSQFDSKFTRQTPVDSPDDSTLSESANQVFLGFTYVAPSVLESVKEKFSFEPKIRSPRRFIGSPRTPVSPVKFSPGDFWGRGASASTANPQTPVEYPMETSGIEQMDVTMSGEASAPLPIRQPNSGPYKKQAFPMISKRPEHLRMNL
Provide the reading as a plain figure in %.

Completed entries (count: 3):
# remaining activity at 200 µM (compound: O=C(O)/C=C(/c1ccccc1)c1cc2cc(Cl)ccc2s1 [PS 118] ) is 25

# remaining activity at 200 µM (compound: O=C(O)/C=C1\c2ccccc2CC1Cc1ccc(Cl)cc1 (stereo not shown) [PS 102] ) is 55

# remaining activity at 200 µM (compound: O=C(O)CC(Cc1nc2cc(Cl)ccc2[nH]1)c1ccc(Cl)cc1 (stereo not shown) [PS 114] ) is 75

API: the following record is the query input.
# remaining activity at 200 µM (compound: O=C(O)/C=C(/CCc1cccc(Cl)c1)c1ccccc1 [PS 87] ) is 65

* * *

Target: PDK1 (Homo sapiens)
Construct: GST
Sequence (O15530 1-556): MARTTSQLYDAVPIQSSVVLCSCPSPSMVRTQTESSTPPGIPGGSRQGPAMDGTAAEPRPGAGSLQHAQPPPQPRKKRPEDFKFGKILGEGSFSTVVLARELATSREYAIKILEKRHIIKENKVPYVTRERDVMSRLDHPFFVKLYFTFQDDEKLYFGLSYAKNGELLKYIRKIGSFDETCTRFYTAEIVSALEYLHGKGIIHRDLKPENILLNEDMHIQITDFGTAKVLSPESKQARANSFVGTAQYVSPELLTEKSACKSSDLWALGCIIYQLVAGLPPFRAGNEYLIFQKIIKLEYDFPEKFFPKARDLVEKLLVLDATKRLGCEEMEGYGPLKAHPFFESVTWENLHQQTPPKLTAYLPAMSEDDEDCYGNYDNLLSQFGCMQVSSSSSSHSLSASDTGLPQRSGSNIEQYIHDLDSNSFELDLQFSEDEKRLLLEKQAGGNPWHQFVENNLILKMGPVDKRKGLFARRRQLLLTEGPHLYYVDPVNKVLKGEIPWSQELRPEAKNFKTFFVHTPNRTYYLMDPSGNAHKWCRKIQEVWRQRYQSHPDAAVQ
Test: cell-free kinase activity assay (ATPgamma[32P], T308tide substrate)
Type: biochemical
Settings: 50 μM compound; DMSO control set 100%; read-out: percent of catalytic activity of the Kinase in the presence of compound as compared to the solvent control (DMSO): PDK1
measurement-label: activity at 50 µM (%)
Provide the reading as a plain figure in %.

# activity at 50 µM (compound: O=C(O)CC(CC(=O)N1Cc2ccc(Cl)cc2C1)c1ccc(Cl)cc1 (stereo not shown) [PS 141] ) is 300

# activity at 50 µM (compound: O=C(O)CC(C(=O)N1CCc2ccccc2C1)c1ccc(Cl)cc1 (stereo not shown) [PS 152] ) is 240

# activity at 50 µM (compound: O=C(O)/C=C(/CCc1ccc(Br)cc1)c1ccccc1 [PS-T10] ) is 400

---
# activity at 50 µM (compound: O=C(O)/C=C(/CCc1cccc(Cl)c1)c1ccccc1 [PS 87] ) is 150

# activity at 50 µM (compound: O=C(O)CC(Cc1nc2cc(Cl)ccc2[nH]1)c1ccc(Cl)cc1 (stereo not shown) [PS 114] ) is 400

* * *

Target: PDK1 (Homo sapiens, UniProt O15530)
Construct: GST
Sequence (O15530 1-556): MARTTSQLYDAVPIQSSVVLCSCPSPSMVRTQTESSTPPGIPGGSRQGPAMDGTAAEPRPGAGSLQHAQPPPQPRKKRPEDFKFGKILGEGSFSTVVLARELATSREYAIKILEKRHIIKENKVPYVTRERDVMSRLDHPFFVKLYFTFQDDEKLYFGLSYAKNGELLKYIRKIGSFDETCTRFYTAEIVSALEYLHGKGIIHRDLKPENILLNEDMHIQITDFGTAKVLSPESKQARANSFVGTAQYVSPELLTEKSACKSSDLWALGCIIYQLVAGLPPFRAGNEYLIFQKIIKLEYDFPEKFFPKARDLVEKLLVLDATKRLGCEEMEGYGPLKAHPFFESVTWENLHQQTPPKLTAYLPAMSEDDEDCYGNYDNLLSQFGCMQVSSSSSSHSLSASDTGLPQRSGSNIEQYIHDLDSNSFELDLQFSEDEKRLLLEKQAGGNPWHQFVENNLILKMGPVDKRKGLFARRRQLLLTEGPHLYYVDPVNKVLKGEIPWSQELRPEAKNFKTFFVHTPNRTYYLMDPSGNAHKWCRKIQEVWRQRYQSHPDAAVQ
Assay: cell-free kinase activity assay (ATPgamma[32P], T308tide substrate)
Format: biochemical
Conditions: maximum activation achievable, compared to the basal activity of PDK1; n.e.: no effect
Decide by max. activation of PDK1 (fold): equal to or exceeding 3 fold means Condition met, less means Condition not met.

Is max. activation of PDK1 (fold) at least 3 fold? Consider O=C(O)/C=C(\c1ccccc1)c1cc2cc(Cl)ccc2s1
Condition met

Is max. activation of PDK1 (fold) at least 3 fold? Consider O=C(O)/C=C(\COc1ccc(Cl)cc1)c1ccccc1
Condition not met

Is max. activation of PDK1 (fold) at least 3 fold? Consider Cc1ccc2oc(C(CC(=O)O)c3ccccc3)cc2c1 (centres unmarked)
Condition not met

Is max. activation of PDK1 (fold) at least 3 fold? Consider O=C(O)/C=C(/CSc1ccc(Cl)cc1)c1ccccc1
Condition not met

Is max. activation of PDK1 (fold) at least 3 fold? Consider O=C(O)/C=C(\CCc1c[nH]c2ccccc12)c1ccccc1
Condition not met

Is max. activation of PDK1 (fold) at least 3 fold? Consider O=C(O)/C=C1\c2ccccc2CC1Cc1ccc(Cl)cc1 (centres unmarked)
Condition not met

* * *

This section presents molecules with their documented max. activation of PDK1 (fold) values.
target: PDK1 (Homo sapiens, UniProt O15530); construct: GST; experiment: cell-free kinase activity assay (ATPgamma[32P], T308tide substrate); format: biochemical; details: maximum activation achievable, compared to the basal activity of PDK1; n.e.: no effect
Provide the reading as a plain figure in fold.

# max. activation of PDK1 (fold) measured on PDK1 (Homo sapiens, UniProt O15530) for item O=C(O)/C=C(/CCc1cccc(Cl)c1)c1ccccc1 [PS 87] = 4.1

* * *

molecular target: SGK (Homo sapiens, UniProt O00141); test: cell-free kinase activity assay; assay type: biochemical; conditions: 200 μM compound; DMSO control set 100%; read-out: percent of catalytic activity of the Kinase in the presence of compound as compared to the solvent control (DMSO): SGK
Sequence (O00141 whole entry, species assumed): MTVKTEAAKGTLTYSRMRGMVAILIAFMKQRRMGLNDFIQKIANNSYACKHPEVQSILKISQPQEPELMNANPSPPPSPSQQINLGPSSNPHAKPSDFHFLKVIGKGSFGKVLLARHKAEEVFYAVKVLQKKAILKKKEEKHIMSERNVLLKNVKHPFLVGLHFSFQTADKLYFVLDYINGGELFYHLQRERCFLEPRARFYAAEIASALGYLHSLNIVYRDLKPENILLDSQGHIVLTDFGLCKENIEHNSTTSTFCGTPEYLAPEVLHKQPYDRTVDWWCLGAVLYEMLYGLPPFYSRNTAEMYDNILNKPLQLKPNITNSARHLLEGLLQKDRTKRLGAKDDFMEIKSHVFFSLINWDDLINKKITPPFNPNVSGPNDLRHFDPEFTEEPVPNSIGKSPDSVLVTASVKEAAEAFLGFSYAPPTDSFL
This section presents molecules with their documented remaining activity at 200 µM values.

# remaining activity at 200 µM (molecule: O=C(O)CC(CC(=O)N1Cc2ccc(Cl)cc2C1)c1ccc(Cl)cc1 (centres unmarked) ) is 70 to 80%

# remaining activity at 200 µM (molecule: O=C(O)/C=C1\c2ccccc2CC1Cc1ccc(Cl)cc1 (centres unmarked) ) is 50%

# remaining activity at 200 µM (molecule: O=C(O)CC(Cc1nc2cc(Cl)c(Cl)cc2[nH]1)c1ccccc1 (centres unmarked) ) is ~60%

# remaining activity at 200 µM (molecule: O=C(O)/C=C(/CCc1cccc(Cl)c1)c1ccccc1 ) is 60%

# remaining activity at 200 µM (molecule: O=C(O)/C=C(\CCc1ccc(Cl)cc1)c1ccccc1F ) is ~40%

---
# remaining activity at 200 µM (molecule: O=C(O)CC(Cc1nc2c(Cl)cc(Cl)cc2[nH]1)c1ccc(Cl)cc1 (centres unmarked) ) is ~70%

# remaining activity at 200 µM (molecule: O=C(O)/C=C(/CCc1ccc(C(F)(F)F)cc1)c1ccccc1 ) is ~20%

# remaining activity at 200 µM (molecule: O=C(O)/C=C(/c1ccccc1)c1cc2cc(Cl)ccc2s1 ) is ~20%

* * *

target: PDK1 (Homo sapiens); construct: GST; experiment: cell-free kinase activity assay (ATPgamma[32P], T308tide substrate); assay type: biochemical; settings: concentration of the compound required to activate half maximally; n.e.: no effect
Define the label as Criterion met when AC50 is strictly less than 30 µM and as Criterion not met in all remaining cases.

Record excerpt, results attached:
Determine if O=C(O)/C=C(\c1ccccc1)c1cc2cc(Cl)ccc2s1 [PS 119] shows AC50 strictly lower than 30 µM.
Criterion met

Determine if O=C(O)/C=C(\CCc1ccc2ccccc2c1)c1ccccc1 [PS 138] shows AC50 strictly lower than 30 µM.
Criterion met

Determine if CCc1ccc(CC/C(=C/C(=O)O)c2ccccc2)cc1 [PS 130] shows AC50 strictly lower than 30 µM.
Criterion not met

---
Determine if O=C(O)/C=C(/CCc1ccc(F)cc1)c1ccccc1 [PS-T3] shows AC50 strictly lower than 30 µM.
Criterion not met

* * *

This section presents molecules with their documented AC50 values.
biological target: PDK1 (Homo sapiens, UniProt O15530); construct: GST; assay: cell-free kinase activity assay (ATPgamma[32P], T308tide substrate); format: biochemical; conditions: concentration of the compound required to activate half maximally; n.e.: no effect

# AC50 (molecule: O=C(O)/C=C(\CCc1ccc(Cl)c(Cl)c1)c1ccccc1 ) is > 100 µM

---
# AC50 (molecule: O=C(O)/C=C(/CCc1ccc(Cl)cc1Cl)c1ccccc1 ) is 9.4 µM

# AC50 (molecule: O=C(O)/C=C(/COc1ccc(Cl)cc1)c1ccccc1 ) is 22.8 µM

# AC50 (molecule: O=C(O)/C=C(/CCc1ccc(Br)cc1)c1ccccc1 ) is 14.5 µM

# AC50 (molecule: O=C(O)/C=C(/CCc1ccc(C(F)(F)F)cc1)c1ccccc1 ) is 13.8 µM
